From: PubChem BioAssay AID1159580

- method notes: chemical genetic growth profiling, strain panel (AID 1159580);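 further: tested at 20 µM; growth read once vehicle control cultures reached saturation at 30 °C; 1 = growth at the plate median or of vehicle wells; lower values mean less growth of the strain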
- measurement context: S. cerevisiae deletion strains, growth OD, locus YBR231C, strain swc5, stronger effect = lower value
The whole screen tested about 5,500 compounds, of which about 2,000 (36%) were called active. About 18% were inconclusive and are not listed. The list shows a part of the results.
recorded metric: normalized growth
# print the numeric value only

Example cases with answers are listed next.
{"columns": ["compound", "quantitative readout"],
 "data": [
  ["O=C(CCCN1CCC(O)(c2ccc(Cl)cc2)CC1)c1ccc(F)cc1", 0.815],
  ["COc1nc(NC(C)C)nc(NC(C)C)n1", 1.02]
]}

Alright, here's another compound for you.
Could you share which normalized growth value was measured for COC1=CC(=O)C=C(OC)C1=O ?
0.982

---

- method notes: chemical genetic growth profiling, strain panel (AID 1159580);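 further: tested at 20 µM; growth read once vehicle control cultures reached saturation at 30 °C; 1 = growth at the plate median or of vehicle wells; lower values mean less growth of the strain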
- measurement context: S. cerevisiae deletion strains, growth OD, locus YCL011C, strain gbp2, stronger effect = lower value
Among all 5,500 compounds or so, about 2,000 (36%) were called active. Another 18% or so got no clear call; they are omitted. Some of the results follow.
recorded metric: normalized growth
# print the numeric value only

Example cases with answers are listed next.
{"columns": ["molecule", "recorded metric", "quantitative readout"],
 "data": [
  ["CC1(C)C(=O)CC[C@@]2(C)C1C[C@@H](O)[C@@]1(C)C3=CC(=O)O[C@@H](c4ccoc4)[C@]3(C)CCC21 (stereo partly specified)", "normalized growth", 1.02],
  ["NCCCN", "normalized growth", 0.973],
  ["NCCCC(O)(P(=O)(O)O)P(=O)(O)O", "normalized growth", 0.997],
  ["CN(C)CC[C@H](c1ccc(Cl)cc1)c1ccccn1", "normalized growth", 0.993],
  ["CC(=O)O[C@@H]1CC2C(C)(CC[C@H](O)C2(C)C)C2CC[C@]3(C)C(=CC(=O)O[C@H]3c3ccoc3)C21C (stereo partly specified)", "normalized growth", 0.995]
]}

Could you share which normalized growth value was measured for CCn1nc(C(=O)O)c(=O)c2cc3c(cc21)OCO3 ?
0.987

---

# normalized growth values compiled below
- method notes: chemical genetic growth profiling, strain panel (AID 1159580);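 further: tested at 20 µM; growth read once vehicle control cultures reached saturation at 30 °C; 1 = growth at the plate median or of vehicle wells; lower values mean less growth of the strain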
- measurement context: S. cerevisiae deletion strains, growth OD, locus YDR150W, strain NUM1, stronger effect = lower value
The campaign covered roughly 5,500 compounds. About 2,000 (36%) were called active. Not shown: some 18% with an inconclusive outcome. The list shows a part of the results.
# print the numeric value only

{"columns": ["molecule", "quantitative readout"],
 "data": [
  ["COc1ccccc1N1CCN(C(=O)C(C)Nc2ccccn2)CC1 (centres undefined)", 0.986]
]}

Alright, here's another molecule for you.
Could you share which normalized growth value was measured for O=C1C(c2ccc(Br)cc2)=C(O)c2ccccc21 ?
0.958

---

- method notes: chemical genetic growth profiling, strain panel (AID 1159580);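 further: tested at 20 µM; growth read once vehicle control cultures reached saturation at 30 °C; 1 = growth at the plate median or of vehicle wells; lower values mean less growth of the strain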
- measurement context: S. cerevisiae deletion strains, growth OD, locus YGR252W, strain gcn5, stronger effect = lower value
Out of some 5,500 compounds screened, about 2,000 (36%) were called active. Roughly 18% stayed inconclusive and do not appear here. Some of the results follow.
recorded metric: normalized growth
# print the numeric value only

Example cases with answers are listed next.
{"columns": ["molecule", "normalized growth"],
 "data": [
  ["NC(N)=Nc1ccc(Cl)cc1", 0.972],
  ["COc1cc(C)c2c(=O)c3c(O)cc(OC)cc3oc2c1", 0.929],
  ["COc1ccc(-c2cc(=O)c3c(O)cc(O)cc3o2)cc1O", 0.96],
  ["CO[C@@H]1C[C@H](O[C@H]2CC[C@]3(C)C4CC[C@]5(C)[C@@H](C6=CC(=O)OC6)CC[C@]5(O)[C@@H]4CC[C@]3(O)C2)O[C@H](C)[C@@H]1O (stereo partly specified)", 0.844],
  ["COC1CC(O[C@H]2CC[C@]3(C=O)C4CC[C@]5(C)C(C6=CC(=O)OC6)CC[C@]5(O)C4CC[C@]3(O)C2)OC(C)C1O (stereo partly specified)", 0.949]
]}

Alright, here's another molecule for you.
Could you share which normalized growth value was measured for COc1ccc(-c2cc(=O)c3c(O)cc(O)c(-c4cc(-c5cc(=O)c6c(O)cc(O)cc6o5)ccc4OC)c3o2)cc1 ?
0.995
